System: ATCC 35837: Ethanmbutol resistant Mycobacterium tuberculosis
Assay: Assay for in vitro antibacterial activity, agar dilution method: ATCC 35837
Assay type: cell-based
Conditions: agar dilution method; Ethanmbutol resistant Mycobacterium tuberculosis
measured-endpoint: Antibacterial Activity (MIC50) ATCC 35837

Take a look at these entries with their results.
[
  {
    "substance-smiles": "CC(=O)NC[C@H]1CN(c2ccc(-c3ccc(-c4nnn[nH]4)nc3)c(F)c2)C(=O)O1",
    "endpoint-result": ">25 µg/mL"
  },
  {
    "substance-smiles": "CC(=O)NC[C@H]1CN(c2ccc(-c3ccc(-c4noc(C)n4)nc3)c(F)c2)C(=O)O1",
    "endpoint-result": "0.1 µg/mL"
  },
  {
    "substance-smiles": "CC(=O)NC[C@H]1CN(c2ccc(-c3ccc(-n4cnnn4)nc3)c(F)c2)C(=O)O1",
    "endpoint-result": "0.1 µg/mL"
  },
  {
    "substance-smiles": "CC(=O)NC[C@H]1CN(c2ccc(-c3ccc(N4CCOC4=O)nc3)c(F)c2)C(=O)O1",
    "endpoint-result": "0.1 µg/mL"
  },
  {
    "substance-smiles": "CC(=O)NC[C@H]1CN(c2ccc(-c3ccc(-c4nnn(C)n4)nc3)c(F)c2)C(=O)O1",
    "endpoint-result": "0.1 µg/mL"
  }
]

Hi! Can you tell me Antibacterial Activity (MIC50) ATCC 35837 for each of these molecules?
1. CC(=O)NC[C@H]1CN(c2ccc(-c3ccc(-c4nnc(C)o4)nc3)c(F)c2)C(=O)O1
2. CC(=O)NC[C@H]1CN(c2ccc(-c3ccc(-n4cncn4)nc3)c(F)c2)C(=O)O1
3. CC(=O)NC[C@H]1CN(c2ccc(-c3ccc(-c4nnnn4C)nc3)c(F)c2)C(=O)O1

Solution:
1. 0.1 µg/mL
2. 0.2 µg/mL
3. 0.1 µg/mL
